Reported self-cleavage kobs at 640 uM GlcN6P values for the following variants.
B1: glmS ribozyme (parent)
chain: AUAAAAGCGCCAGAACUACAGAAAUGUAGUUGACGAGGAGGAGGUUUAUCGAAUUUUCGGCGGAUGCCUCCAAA

Variants of: B1
Assay: self-cleavage kobs at 640 uM GlcN6P; higher = faster cleavage; RNA array
Details: with glucosamine-6-phosphate
Variants at the floor of the assay were thinned out.
readout: self-cleavage kobs at 640 uM GlcN6P (s⁻¹)

variant designation	readout	output unit	relation	numeric result
G40C G44A	self-cleavage kobs at 640 uM GlcN6P	s⁻¹	<	1e-05
A6C A14G G29C A39C U54A	self-cleavage kobs at 640 uM GlcN6P	s⁻¹	<	1e-05
U31C A42U G44A	self-cleavage kobs at 640 uM GlcN6P	s⁻¹	<	1e-05
G51U G63C C67G	self-cleavage kobs at 640 uM GlcN6P	s⁻¹	<	1e-05
A12G G29C	self-cleavage kobs at 640 uM GlcN6P	s⁻¹	=	3.94e-05
G41U U46C	self-cleavage kobs at 640 uM GlcN6P	s⁻¹	=	4.34e-05
U55A C58A	self-cleavage kobs at 640 uM GlcN6P	s⁻¹	=	9.44e-05
G40A G66C	self-cleavage kobs at 640 uM GlcN6P	s⁻¹	=	0.000166
A33C A36G G40A	self-cleavage kobs at 640 uM GlcN6P	s⁻¹	<	1e-05
U31C G60A U69A	self-cleavage kobs at 640 uM GlcN6P	s⁻¹	<	1e-05
C11G G13U C50G G60U C61G	self-cleavage kobs at 640 uM GlcN6P	s⁻¹	=	5.02e-05
A6C U46C U47C G59A	self-cleavage kobs at 640 uM GlcN6P	s⁻¹	<	1e-05
C34G C58G	self-cleavage kobs at 640 uM GlcN6P	s⁻¹	<	1e-05
A33U U54A	self-cleavage kobs at 640 uM GlcN6P	s⁻¹	=	6.35e-05
G43C C68G	self-cleavage kobs at 640 uM GlcN6P	s⁻¹	=	0.0109
A14U A52C C71G	self-cleavage kobs at 640 uM GlcN6P	s⁻¹	<	1e-05
C34G G41A	self-cleavage kobs at 640 uM GlcN6P	s⁻¹	<	1e-05
G7U U55G U57C	self-cleavage kobs at 640 uM GlcN6P	s⁻¹	<	1e-05
C16U U65C	self-cleavage kobs at 640 uM GlcN6P	s⁻¹	=	0.000152
G29A C70U	self-cleavage kobs at 640 uM GlcN6P	s⁻¹	=	0.000483
A6C A33C A48C G60U	self-cleavage kobs at 640 uM GlcN6P	s⁻¹	<	1e-05
A53U A64G	self-cleavage kobs at 640 uM GlcN6P	s⁻¹	=	0.00551
U54G C68G	self-cleavage kobs at 640 uM GlcN6P	s⁻¹	=	0.000111
A36C G66C	self-cleavage kobs at 640 uM GlcN6P	s⁻¹	<	1e-05
G13A A48U	self-cleavage kobs at 640 uM GlcN6P	s⁻¹	<	1e-05
G7C U45G A53U A64G	self-cleavage kobs at 640 uM GlcN6P	s⁻¹	<	1e-05
G51U C61U	self-cleavage kobs at 640 uM GlcN6P	s⁻¹	<	1e-05
G9C G38U U45C	self-cleavage kobs at 640 uM GlcN6P	s⁻¹	<	1e-05
A39C U45G U56G	self-cleavage kobs at 640 uM GlcN6P	s⁻¹	=	7.85e-05
A12C U31G U47A	self-cleavage kobs at 640 uM GlcN6P	s⁻¹	=	0.000707
A52U G60C	self-cleavage kobs at 640 uM GlcN6P	s⁻¹	<	1e-05
G7U G29C	self-cleavage kobs at 640 uM GlcN6P	s⁻¹	<	1e-05
G35C C50U A53C	self-cleavage kobs at 640 uM GlcN6P	s⁻¹	<	1e-05
C8G G29U	self-cleavage kobs at 640 uM GlcN6P	s⁻¹	<	1e-05
U30C G41A	self-cleavage kobs at 640 uM GlcN6P	s⁻¹	<	1e-05
G59U A64U	self-cleavage kobs at 640 uM GlcN6P	s⁻¹	<	1e-05
C16U C67A	self-cleavage kobs at 640 uM GlcN6P	s⁻¹	=	0.00138
G32C U56A U65G U69G	self-cleavage kobs at 640 uM GlcN6P	s⁻¹	=	0.000283
U31A U47C U54G	self-cleavage kobs at 640 uM GlcN6P	s⁻¹	=	0.000284
A33C C34A U57G	self-cleavage kobs at 640 uM GlcN6P	s⁻¹	<	1e-05
G9C C71U	self-cleavage kobs at 640 uM GlcN6P	s⁻¹	<	1e-05
C11A C67U C71G	self-cleavage kobs at 640 uM GlcN6P	s⁻¹	=	0.000295
U30C U56G	self-cleavage kobs at 640 uM GlcN6P	s⁻¹	=	8.86e-05
A15U U54G U65G	self-cleavage kobs at 640 uM GlcN6P	s⁻¹	=	0.000149
U31G U45A	self-cleavage kobs at 640 uM GlcN6P	s⁻¹	=	0.00653
A6C G37C A39G G40U G41U	self-cleavage kobs at 640 uM GlcN6P	s⁻¹	<	1e-05
G41U G43A	self-cleavage kobs at 640 uM GlcN6P	s⁻¹	<	1e-05
G29U U47A	self-cleavage kobs at 640 uM GlcN6P	s⁻¹	=	0.000972
G32U G63U C71A	self-cleavage kobs at 640 uM GlcN6P	s⁻¹	<	1e-05
G37U A42C C50A A64U	self-cleavage kobs at 640 uM GlcN6P	s⁻¹	<	1e-05
U54C C71G	self-cleavage kobs at 640 uM GlcN6P	s⁻¹	=	0.000424
U45C U54G U56A	self-cleavage kobs at 640 uM GlcN6P	s⁻¹	=	0.000123
G35A G44A	self-cleavage kobs at 640 uM GlcN6P	s⁻¹	<	1e-05
U30G G37C G41A A48U A53U C68G C70U	self-cleavage kobs at 640 uM GlcN6P	s⁻¹	<	1e-05
G13U C50A U69G	self-cleavage kobs at 640 uM GlcN6P	s⁻¹	=	0.000105
A33C G44C U57A A64U	self-cleavage kobs at 640 uM GlcN6P	s⁻¹	<	1e-05
G41A C68G	self-cleavage kobs at 640 uM GlcN6P	s⁻¹	<	1e-05
G13C G43U A52U	self-cleavage kobs at 640 uM GlcN6P	s⁻¹	<	1e-05
G41C U46G U57C	self-cleavage kobs at 640 uM GlcN6P	s⁻¹	<	1e-05
U54C C70U	self-cleavage kobs at 640 uM GlcN6P	s⁻¹	=	0.00435
C50G G60A A64G	self-cleavage kobs at 640 uM GlcN6P	s⁻¹	=	6.58e-05
C10A A12C G43A C67U C70G	self-cleavage kobs at 640 uM GlcN6P	s⁻¹	<	1e-05
C16G G40A	self-cleavage kobs at 640 uM GlcN6P	s⁻¹	=	0.000114
G44C C70A	self-cleavage kobs at 640 uM GlcN6P	s⁻¹	<	1e-05
G40U U46G	self-cleavage kobs at 640 uM GlcN6P	s⁻¹	=	0.000242
A36G U49G	self-cleavage kobs at 640 uM GlcN6P	s⁻¹	<	1e-05
G66A C70A	self-cleavage kobs at 640 uM GlcN6P	s⁻¹	=	0.000708
A33U G60A	self-cleavage kobs at 640 uM GlcN6P	s⁻¹	<	1e-05
G44A U47A C71A	self-cleavage kobs at 640 uM GlcN6P	s⁻¹	<	1e-05
G7C G51A	self-cleavage kobs at 640 uM GlcN6P	s⁻¹	<	1e-05
C16G G59U	self-cleavage kobs at 640 uM GlcN6P	s⁻¹	<	1e-05
G43A G59C	self-cleavage kobs at 640 uM GlcN6P	s⁻¹	<	1e-05
G26U A42G U55C	self-cleavage kobs at 640 uM GlcN6P	s⁻¹	=	0.0103
C16G A39G G51U U55A	self-cleavage kobs at 640 uM GlcN6P	s⁻¹	<	1e-05
A6U G35C G62A	self-cleavage kobs at 640 uM GlcN6P	s⁻¹	<	1e-05
C16U A52U	self-cleavage kobs at 640 uM GlcN6P	s⁻¹	=	4.82e-05
A12U G62U	self-cleavage kobs at 640 uM GlcN6P	s⁻¹	<	1e-05
A33C G63U	self-cleavage kobs at 640 uM GlcN6P	s⁻¹	<	1e-05
A39U U54C	self-cleavage kobs at 640 uM GlcN6P	s⁻¹	=	0.00436
A39G U45G	self-cleavage kobs at 640 uM GlcN6P	s⁻¹	=	0.00416
U46G G51U U56G U69G	self-cleavage kobs at 640 uM GlcN6P	s⁻¹	=	0.000445
U54G U57A C58G C68A	self-cleavage kobs at 640 uM GlcN6P	s⁻¹	=	0.000592
C11A U31G G35C	self-cleavage kobs at 640 uM GlcN6P	s⁻¹	<	1e-05
G35C G43U A52U C61U	self-cleavage kobs at 640 uM GlcN6P	s⁻¹	<	1e-05
C16U G41A	self-cleavage kobs at 640 uM GlcN6P	s⁻¹	=	0.000403
A15G G51U G63U C68G	self-cleavage kobs at 640 uM GlcN6P	s⁻¹	=	9.97e-05
U45A C70U	self-cleavage kobs at 640 uM GlcN6P	s⁻¹	=	0.00199
A15U G62U	self-cleavage kobs at 640 uM GlcN6P	s⁻¹	<	1e-05
A12U U56G G66C	self-cleavage kobs at 640 uM GlcN6P	s⁻¹	=	0.000374
C16A A36G U65G C71U	self-cleavage kobs at 640 uM GlcN6P	s⁻¹	<	1e-05
G40A G41A	self-cleavage kobs at 640 uM GlcN6P	s⁻¹	=	6.83e-05

FYI, the data here is from the supplement of paper PMC7125110.
